Below, each entry is listed with its recorded IC50.
Molecular target: 5-HT2C receptor (Sus scrofa)
Sequence (K7GSR7 1-457): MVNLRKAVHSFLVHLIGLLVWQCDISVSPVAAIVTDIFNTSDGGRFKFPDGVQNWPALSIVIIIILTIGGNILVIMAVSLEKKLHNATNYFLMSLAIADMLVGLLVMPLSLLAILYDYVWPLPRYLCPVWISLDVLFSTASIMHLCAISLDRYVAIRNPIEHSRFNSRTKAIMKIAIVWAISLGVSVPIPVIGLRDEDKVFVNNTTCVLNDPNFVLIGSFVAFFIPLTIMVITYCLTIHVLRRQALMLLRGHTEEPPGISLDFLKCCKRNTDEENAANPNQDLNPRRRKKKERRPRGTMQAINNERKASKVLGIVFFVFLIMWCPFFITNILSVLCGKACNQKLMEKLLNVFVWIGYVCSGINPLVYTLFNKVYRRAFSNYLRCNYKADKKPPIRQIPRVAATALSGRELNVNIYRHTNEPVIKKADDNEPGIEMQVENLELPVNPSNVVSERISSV
observationType: IC50

[
  {
    "compound": "CCC1(CCCCN2CCN(c3cccc(Cl)c3)CC2)C(=O)Nc2ccc(S(N)(=O)=O)cc21 (stereo not drawn) [Example 72, monooxalate]",
    "observationType": "IC50",
    "result": "< 100 nM"
  },
  {
    "compound": "CCC1(CCCCN2CCN(c3ccccc3)CC2)C(=O)Nc2ccccc21 (stereo not drawn) [Example 68, monooxalate]",
    "observationType": "IC50",
    "result": "< 100 nM"
  },
  {
    "compound": "CCC1(CCCCN2CCN(c3cccc(Cl)c3)CC2)C(=O)Nc2ccc(Br)cc21 (stereo not drawn) [Example 61, monooxalate]",
    "observationType": "IC50",
    "result": "< 100 nM"
  }
]
